# tested_target: CRBN truncate (318-426) (Homo sapiens (Human), UniProt Q96SW2)
# Sequence (Q96SW2 318-426): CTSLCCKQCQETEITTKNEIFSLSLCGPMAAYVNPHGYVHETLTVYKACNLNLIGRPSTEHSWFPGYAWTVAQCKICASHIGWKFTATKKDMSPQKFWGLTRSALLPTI
# protocol_details: Measurement of molecular interactions using surface plasmon resonance (SPR), Biacore T200
# assay_context: 25° C., immobilized CRBN truncate, upper limit of measurement 200 μM
Exercise: state measured Kd for each of the molecules provided.

// worked examples, Kd included
molecule	Kd
Cn1c(-c2ccc(CCC(=O)OC(C)(C)C)cc2)nn(C2CCCC(=O)NC2=O)c1=O (stereo not drawn)	≥ 100 µM
Cc1sc2c(c1C)C(c1ccc(Cl)cc1)=N[C@@H](CC(=O)NCCCCCCCCNC(=O)CCc1nn(C3CCCC(=O)NC3=O)c3ccccc13)c1nnc(C)n1-2 (stereo partly drawn)	< 50 µM
O=C1CCCC2(CCCN(C(=O)c3ccccc3)CCC2)C(=O)N1	50 to 100 µM
O=C1CCCC2(CCN(c3ncc(Br)cn3)C2)C(=O)N1 (stereo not drawn)	≥ 100 µM

Hey, can you go through the list below and give me Kd for every item?
1. O=C1CCCC2(CCN(c3ccc([N+](=O)[O-])cc3F)C2)C(=O)N1 (stereo not drawn)
2. O=C1CCCC(n2c(=O)ccc3cc(Br)ccc32)C(=O)N1 (stereo not drawn)
3. Cn1c(=O)n(C2CCCC(=O)NC2=O)c2cccc(CCCCC(=O)OC(C)(C)C)c21 (stereo not drawn)

Completion:
< 50 µM
≥ 100 µM
50 to 100 µM

Go through the items and report each one's Kd.
1. Cn1c(=O)n(C2CCCC(=O)NC2=O)c2cccc(C3=CCN(C(=O)OC(C)(C)C)CC3)c21 (stereo not drawn)
2. Cc1sc2c(c1C)C(c1ccc(Cl)cc1)=N[C@@H](CC(=O)NCCCCCCCCNC(=O)/C=C/c1ccc([C@H]3C[C@H](N4C=CCC(=O)NC4=O)C(=O)N3C)cc1)c1nnc(C)n1-2 (relative stereo)
3. Nc1ccccc1OC1CCCC(=O)NC1=O (stereo not drawn)
4. Cc1ccc(NC(=O)NCc2ccccc2C(=O)N2CCC3(CCCC(=O)NC3=O)C2)cc1Cl (stereo not drawn)
5. Cc1sc2c(c1C)C(c1ccc(Cl)cc1)=N[C@@H](CC(=O)NCCCCCOc1ccc3nc(N4CCC5(CCCC(=O)NC5=O)C4)sc3c1)c1nnc(C)n1-2 (stereo partly drawn)

Completion:
["50 to 100 µM", "< 50 µM", "≥ 100 µM", "≥ 100 µM", "< 50 µM"]

Value sought for every listed molecule: Kd.
1. COc1c(OCC(=O)OC(C)(C)C)cccc1C(=O)NC1CCCC(=O)NC1=O (stereo not drawn)
2. O=C1CCCC2(CCN(C(=O)c3ccc4scnc4c3)C2)C(=O)N1 (stereo not drawn)
3. O=C1CCCC(Oc2ccc(Br)cc2)C(=O)N1 (stereo not drawn)

Completion:
1: ≥ 100 µM; 2: ≥ 100 µM; 3: ≥ 100 µM

====

# tested_target: CRBN truncate (318-426) (Homo sapiens (Human))
# protocol_details: Measurement of molecular interactions using surface plasmon resonance (SPR), Biacore T200
# assay_context: 25° C., immobilized CRBN truncate, upper limit of measurement 200 μM
pKd: −log10 of the molar value.
Please respond with reported pKd for every item in the list.

Answered examples (2):
compound	result
Cc1sc2c(c1C)C(c1ccc(Cl)cc1)=N[C@@H](CC(=O)NCCCCCCCCNC(=O)CN1C(=O)[C@@](C)(N3CCCC(=O)NC3=O)c3ccccc31)c1nnc(C)n1-2 [Example 352]	> 4.30
COc1cc(N2CCC3(CCCC(=O)NC3=O)C2)ccc1[N+](=O)[O-] (stereo not shown) [Example 41]	≤ 4.00

Would you be so kind as to report pKd for each listed record?
1. Cn1c(=O)n(C2CCCC(=O)NC2=O)c2cccc(I)c21 (stereo not shown) [Example 210]
2. CC(C)(C)OC(=O)NCCCCCCc1cccc2c(C(=O)N3CCC4(CCCC(=O)NC4=O)C3)cccc12 (stereo not shown) [Example 161]
3. O=C1COCC2(CCN(C(=O)c3ccccc3)CC2)C(=O)N1 [Example 13-2]
4. Cc1sc2c(c1C)C(c1ccc(Cl)cc1)=N[C@@H](CC(=O)NCCCCCCCCNC(=O)/C=C/c1cccc3c1N(C)C(=O)C3(C)N1C=CCC(=O)NC1=O)c1nnc(C)n1-2 (stereo partly shown) [Example 348]
5. O=C1CCC(N2C(=O)CC3(CN(C(=O)c4ccccc4)C3)C2=O)C(=O)N1 (stereo not shown) [Example 44-2]

Completion:
1: 4.00 to 4.30; 2: 4.00 to 4.30; 3: ≤ 4.00; 4: > 4.30; 5: ≤ 4.00
